# RUN_DESCRIPTION: In vivo pharmacokinetics in male CD1 mice
# Parameters: species or system mouse
# TEST_CONTEXT: mouse, plasma; Table 6; PO 0.5 mg/kg, male CD1 mice
# Experimental: The in vivo pharmacokinetic profiles of the compounds were determined using male CD1 mice weighing […] ([Davies and Morris, 1993]; [Liu and Jia, 2007]). The compounds were administered in a single dose orally (0.5 mg/kg) and intravenously (0.5 mg/kg). […] The remaining plasma concentration was monitored over time by LC-MS/MS by collecting blood samples (40 μl) at 10, 25, and 50 min and 1, 3, 6, 9, 12, and 24 h after administration of the compound. […]
OBSERVED_PROPERTY: Cmax (ng/mL)

>>> endpoint_value("O=C(COc1ccc2ccccc2c1Br)NCCc1nc2ccccc2[nH]1 [Compound 34]")
7.6
>>> endpoint_value("O=C(COc1ccc(Br)cc1)NCCc1nc2ccccc2[nH]1 [Compound 33]")
71.7
>>> endpoint_value("N#Cc1ccccc1OCC(=O)NCCc1nc2ccccc2[nH]1 [Compound 31]")
12.8
>>> endpoint_value("O=C(COc1ccc2ccccc2c1)NCCc1nc2ccccc2[nH]1 [Compound 35]")
3.7
>>> endpoint_value("C=CCCn1c(CCNC(=O)COc2ccccc2Cl)nc2ccccc21 [Compound 38]")
2.5
>>> endpoint_value("Cc1ccccc1OCC(=O)NCCc1nc2ccccc2o1 [Compound 37]")
14.6

###

Reported values of CLpu for individual entries
# RUN_DESCRIPTION: In vivo pharmacokinetics in male CD1 mice
# Design: species or system mouse
# TEST_CONTEXT: Table S6; plasma clearance corrected for the fraction unbound
OBSERVED_PROPERTY: CLpu (mL/min/kg)

>>> endpoint_value("CC(=O)Nc1ccc(OCC(=O)NCCc2nc3ccccc3[nH]2)cc1")
69.3
>>> endpoint_value("O=C(COc1cccc([N+](=O)[O-])c1)NCCc1nc2ccccc2[nH]1")
396.2
>>> endpoint_value("O=C(COc1ccc2cc(O)ccc2c1)NCCc1nc2ccccc2[nH]1")
314

###

# SYSTEM_TESTED: cruzain (Trypanosoma cruzi)
# Construct: made in house; host or cells: Escherichia coli (strain M15)
# Sequence (P25779 123-337 limits assumed): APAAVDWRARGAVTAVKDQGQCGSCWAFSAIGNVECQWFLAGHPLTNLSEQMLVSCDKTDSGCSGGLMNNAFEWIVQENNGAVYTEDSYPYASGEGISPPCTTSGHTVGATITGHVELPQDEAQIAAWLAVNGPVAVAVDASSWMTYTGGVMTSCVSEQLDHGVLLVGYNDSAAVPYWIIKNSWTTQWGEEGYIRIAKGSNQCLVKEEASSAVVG
# RUN_DESCRIPTION: Cruzain enzyme inhibition assay (cleavage of fluorogenic substrate Z-FR-AMC)
# Assay type: biochemical
# TEST_CONTEXT: Table S1; 0.1% Triton X-100
Classification field: yes = % cruzain inhibition, 0.1% Triton at or over 80%; no = % cruzain inhibition, 0.1% Triton under 80%.

>>> category("O=C(COc1ccccc1)NCCc1nc2ccccc2n1CCOc1ccccc1 [Compound 20]")
"yes"
>>> category("O=C(COc1ccccc1)NCCc1nc2ccccc2n1CCOCc1ccccc1 [Compound 21]")
"yes"
>>> category("O=C(COc1ccccc1Br)NCCc1nc2ccccc2n1CCOc1ccccc1Br [Compound 23]")
"no"
>>> category("O=C(COc1ccccc1)NCCc1nc2ccccc2n1CCOc1ccccc1Br [Compound 19]")
"no"
>>> category("O=C(COc1ccccc1)NCCc1nc2ccccc2n1CCCOc1ccccc1 [Compound 24]")
"yes"

###

# RUN_DESCRIPTION: In vivo pharmacokinetics in male CD1 mice
# Parameters: species or system mouse
# TEST_CONTEXT: Table S6; plasma clearance corrected for the fraction unbound
Classification field: criterion met = CLpu at or over 70 mL/min/kg; criterion not met = CLpu under 70 mL/min/kg.

>>> category("O=C(COc1ccc2ccc(O)cc2c1)NCCc1nc2ccccc2[nH]1")
"criterion met"
>>> category("O=C(COc1ccccc1)NCCc1nc2ccccc2[nH]1")
"criterion met"
>>> category("O=C(Cn1ccnc1[N+](=O)[O-])NCc1ccccc1 [BZ, benznidazole, reference compound]")
"criterion not met"
>>> category("CC(=O)Nc1cccc(OCC(=O)NCCc2nc3ccccc3[nH]2)c1")
"criterion met"
>>> category("NC(=O)Cn1c(CCNC(=O)COc2ccccc2)nc2ccccc21")
"criterion not met"

###

# RUN_DESCRIPTION: In vitro metabolic stability in mouse liver microsomes
# Format: in vitro ADME
# TEST_CONTEXT: Table S5
OBSERVED_PROPERTY: CLint (L/h/kg) Mouse

>>> endpoint_value("O=C(CCOc1ccccc1)NCCc1c[nH]c2ccccc12")
536.00
>>> endpoint_value("COc1ccc2[nH]c(CCNC(=O)COc3ccc4ccccc4c3Br)nc2c1")
500.00
>>> endpoint_value("CC(=O)NCCc1nc2ccccc2n1CCOc1ccccc1Br")
306.00
>>> endpoint_value("Cc1cc(C)c(C#N)c(SCC(=O)NCCc2nc3ccccc3[nH]2)n1")
433.00
>>> endpoint_value("O=C(COc1ccc2ccccc2c1O)NCCc1nc2ccccc2[nH]1")
655.00

###

# RUN_DESCRIPTION: In vitro metabolic stability in human liver microsomes
# Format: in vitro ADME
# TEST_CONTEXT: human, liver microsomes, Table S5, read-out: CLint (L/h/kg) Human (converted)
OBSERVED_PROPERTY: CLint scaled at 5 µM (L/h/kg)

>>> endpoint_value("Nc1cccc(OCC(=O)NCCc2nc3ccccc3[nH]2)c1")
11
>>> endpoint_value("O=C(COc1ccc2cc(O)ccc2c1)NCCc1nc2ccccc2[nH]1")
6.66
>>> endpoint_value("O=C(COc1ccccc1)NCCc1nc2ccccc2n1Cc1ccccc1")
120
>>> endpoint_value("Cc1ccccc1OCC(=O)NCCc1nc2ccccc2n1CCOc1ccccc1Br")
123
>>> endpoint_value("O=C(COc1ccccc1Br)NCCc1nc2ccccc2n1CCOc1ccccc1Br")
136
>>> endpoint_value("O=C(COc1ccccc1)NCCc1nc2ccccc2n1CCCOc1ccccc1")
142
>>> endpoint_value("O=C(COc1ccccc1)NCCc1nc2ccccc2n1CCOc1ccccc1")
123

###

# RUN_DESCRIPTION: In vitro metabolic stability in human liver microsomes
# Type: in vitro ADME
# TEST_CONTEXT: human, liver microsomes, Table 5, read-out: CLint (L/h/kg) human (converted)
Classification field: condition met = CLint scaled at 5 µM at or over 20 L/h/kg; condition not met = CLint scaled at 5 µM under 20 L/h/kg.

>>> category("O=C(COc1ccc2ccccc2c1)NCCc1nc2ccccc2[nH]1")
"condition met"
>>> category("Cc1ccccc1OCC(=O)NCCc1nc2ccccc2[nH]1")
"condition met"
>>> category("O=C(COc1ccc(Br)cc1)NCCc1nc2ccccc2[nH]1")
"condition not met"
>>> category("O=C(COc1ccccc1Br)NCCc1nc2ccccc2[nH]1")
"condition not met"
>>> category("O=C(Cn1ccnc1[N+](=O)[O-])NCc1ccccc1 [BZ, benznidazole, reference compound]")
"condition not met"
>>> category("C=CCCn1c(CCNC(=O)COc2ccccc2Cl)nc2ccccc21")
"condition met"

###

Reported values of AUC for individual entries
# RUN_DESCRIPTION: In vivo pharmacokinetics in male CD1 mice
# Set-up: species or system mouse
# TEST_CONTEXT: male, CD1, mouse, plasma, 0.5 mg/kg; Table S6; IV, mice; read-out: AUC (ng*h/mL) IV
OBSERVED_PROPERTY: AUC

>>> endpoint_value("O=C(COc1cccc([N+](=O)[O-])c1)NCCc1nc2ccccc2[nH]1")
"322 ng·h/mL"
>>> endpoint_value("O=C(COc1ccccc1)NCCc1nc2ccccc2[nH]1")
"250 ng·h/mL"
>>> endpoint_value("NC(=O)Cn1c(CCNC(=O)COc2ccccc2)nc2ccccc21")
"1420 ng·h/mL"
>>> endpoint_value("O=C(COc1ccc2ccc(O)cc2c1)NCCc1nc2ccccc2[nH]1")
"77 ng·h/mL"
>>> endpoint_value("CC(=O)Nc1ccc(OCC(=O)NCCc2nc3ccccc3[nH]2)cc1")
"506 ng·h/mL"

###

# RUN_DESCRIPTION: In vitro metabolic stability in mouse liver microsomes
# Assay type: in vitro ADME
# TEST_CONTEXT: mouse, liver microsomes, Table S5, CLint/fu, read-out: CLint_u (L/h/kg) Mouse (converted)
OBSERVED_PROPERTY: CLint scaled at 5 µM (L/h/kg)

>>> endpoint_value("O=C(COc1ccccc1)NCCc1nc2ccccc2n1-c1ccccc1 [Compound 30]")
1130
>>> endpoint_value("O=C(COc1ccccc1)NCCc1nc2ccccc2n1Cc1ccccc1 [Compound 26]")
1010
>>> endpoint_value("CC(=O)Nc1cccc(OCC(=O)NCCc2nc3ccccc3[nH]2)c1 [Compound 3]")
10.6
>>> endpoint_value("O=C(COc1ccccc1)NCCc1nc2ccccc2n1CCOc1ccccc1Br [Compound 19]")
2580
>>> endpoint_value("COCCn1c(CCNC(=O)COc2ccccc2)nc2ccccc21 [Compound 29]")
235
>>> endpoint_value("O=C(COc1ccccc1)NCCc1nc2ccccc2n1CCOCc1ccccc1 [Compound 21]")
1790
>>> endpoint_value("COc1ccc2cc(OCC(=O)NCCc3nc4ccccc4[nH]3)ccc2c1 [Compound 12]")
1610
>>> endpoint_value("O=C(COc1cccc([N+](=O)[O-])c1)NCCc1nc2ccccc2[nH]1 [Compound 8]")
67.5
>>> endpoint_value("O=C(COc1ccc2c(C(=O)O)cccc2c1)NCCc1nc2ccccc2[nH]1 [Compound 15]")
12.9
>>> endpoint_value("O=C(COc1ccc2ccc(O)cc2c1)NCCc1nc2ccccc2[nH]1 [Compound 11]")
68.5
>>> endpoint_value("O=C(COc1ccccc1)NCCc1nc2ccccc2n1CCOc1ccccc1 [Compound 20]")
1200
>>> endpoint_value("Cn1c(CCNC(=O)COc2ccccc2)nc2ccccc21 [Compound 25]")
123
>>> endpoint_value("O=C(COc1ccc(N2C(=O)CCC2=O)cc1)NCCc1nc2ccccc2[nH]1 [Compound 4]")
20.9
>>> endpoint_value("C=CCCn1c(CCNC(=O)COc2ccccc2)nc2ccccc21 [Compound 27]")
756
>>> endpoint_value("O=C(Cn1ccnc1[N+](=O)[O-])NCc1ccccc1 [BZ, benznidazole, reference compound]")
4.43

Ref: paper PMC8767159
